tested_target: human RAMP2 co-expressed with human CRLR on CHO-K1 cells (hCR2-CHOK1) (human, UniProt O60895 43-175; Q16602 23-461)
Sequence (O60895 43-175, chain 1 of 2): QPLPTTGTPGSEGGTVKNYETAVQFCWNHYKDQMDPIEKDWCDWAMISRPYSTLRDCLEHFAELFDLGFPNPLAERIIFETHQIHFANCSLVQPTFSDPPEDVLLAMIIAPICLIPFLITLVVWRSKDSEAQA
Sequence (Q16602 23-461, chain 2 of 2): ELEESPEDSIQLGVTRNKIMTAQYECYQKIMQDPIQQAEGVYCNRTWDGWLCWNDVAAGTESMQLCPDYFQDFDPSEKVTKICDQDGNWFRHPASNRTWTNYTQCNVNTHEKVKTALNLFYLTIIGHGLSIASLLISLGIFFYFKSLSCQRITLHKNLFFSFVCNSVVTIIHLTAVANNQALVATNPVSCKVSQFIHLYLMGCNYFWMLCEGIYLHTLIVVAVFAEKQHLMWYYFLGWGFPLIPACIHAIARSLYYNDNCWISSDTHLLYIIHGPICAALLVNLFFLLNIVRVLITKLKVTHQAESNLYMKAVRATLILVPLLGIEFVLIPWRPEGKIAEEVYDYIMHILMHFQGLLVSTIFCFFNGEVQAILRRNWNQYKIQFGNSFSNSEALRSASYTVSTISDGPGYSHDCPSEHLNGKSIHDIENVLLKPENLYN
assay_text: cell-based or functional assay
measurement_name: IC50 values for cAMP inhibition (nM)
The reply should be a number in nM, with the unit left off.

// below: answered binders
| binder | measurement_name | observed |
| --- | --- | --- |
| 25H4-4F9 antibody (antibody, V domains shown) VH: EVQLQQSGPELVKPGASVKISCKASGYSFTGYFMNWVKQSQGKSLESIGRNNPYNGDSIYNQKFKGKATLTVDKSSNTAHMELRSLTSEDSAVYYCARLMIFDAYYAMDYWGQGTSVTVSS VL: DIQMTQTTSSLSASLGDRVTISCRASQDIRNYLNWYQQKPDGTVKLLIYYTSRLHSGVPSRFSGSGSGTDYSLTISNLEQEDIATYFCQQDSKHPWTFGGGTKLEIK | IC50 values for cAMP inhibition | 0.15 |
| 33H4-1G3 antibody (antibody, V domains shown) VH: EVQLQQSGPELVKPGASVKMSCKASGYSFSGYFMNWVKQSHGKSLEWIGRINPYNGDTLYNQKFKGKATLTVDKSSNTIYMELRSLTSEDSALYYCARLGIYDVYHYVMENWGQGTSVTVSS VL: DIQMTQTTSSLSASLGDRVTISCRASQDIRNYLNWYQQKPDGTVKLLIYYTSRLHSGVPSRFSGSGSGTDYSLTISNLEQEDIATYFCQQDSKNPWTFGGGTKLEIK | IC50 values for cAMP inhibition | 0.045 |

Give the measured IC50 values for cAMP inhibition of h85H7-2B11v2 (antibody, V domains shown) VH: QVQLVQSGAEVKKPGASVKMSCKASGYSFSGYFMNWVKQAPGQGLEWIGRINPYNGDTFYNQKFKGRATLTVDTSTSTTYMELSSLRSEDTALYYCARLGIYDVYHYVMENWGQGTTVTVSS VL: DIQMTQSTSSLSASLGDRVTITCRASQDIRNYLNWYQQKPGKTVKLLIYYTSRLHSGVPSRFSGSGSGTDYTLTISSLQQEDIATYFCQQDSKNPWTFGQGTKLEIK .
0.11

Another: h25H4-4F9v3 (antibody, V domains shown) VH: EVQLVQSGAEVKKPGATVKISCKASGYSFTGYFMNWVKQAPGKGLESIGRNNPYNGDSIYNQKFKGRATLTVDTSTDTAYMELSSLRSEDTAVYYCARLMIFDAYYAMDYWGQGTTVTVSS VL: DIQMTQSPSSLSASVGDRVTITCRASQDIRNYLNWYQQKPGKAVKLLIYYTSRLHSGVPSRFSGSGSGTDYTLTISSLQPEDIATYFCQQDSKHPWTFGQGTKLEIK
0.26
